target: hVR1 (Homo sapiens); construct: expressed in transfected cells; host or cells: HEK293; assay: Human VR1 (hVR1) Functional Assay (FLIPR intracellular calcium, capsaicin challenge); type: cell-based; settings: test concentration 1 μM; capsaicin 0.030 μM; HEK293 cells expressing hVR1
reported_property: inhibition at 1 µM (%)

NS(=O)(=O)c1cc(C(F)(F)F)ccc1-c1ccc2[nH]c(CCc3ccc(C(F)(F)F)cc3)nc2c1: 98
CNS(=O)(=O)c1ccccc1-c1ccc2[nH]c(/C=C/c3cc(F)ccc3F)nc2c1: 89
OCc1ccccc1-c1cc2nc(/C=C/c3ccc(C(F)(F)F)cc3)[nH]c2cc1Cl: 98
NS(=O)(=O)c1ccccc1-c1ccc2[nH]c(/C=C/c3ccc(OC(F)(F)F)cc3)nc2c1: 98

* * *

biological target: hVR1 (Homo sapiens, UniProt Q8NER1); assay: Human VR1 (hVR1) Functional Assay (FLIPR intracellular calcium, capsaicin challenge); details: capsaicin 0.030 μM; HEK293 cells expressing hVR1
Sequence (Q8NER1 whole entry): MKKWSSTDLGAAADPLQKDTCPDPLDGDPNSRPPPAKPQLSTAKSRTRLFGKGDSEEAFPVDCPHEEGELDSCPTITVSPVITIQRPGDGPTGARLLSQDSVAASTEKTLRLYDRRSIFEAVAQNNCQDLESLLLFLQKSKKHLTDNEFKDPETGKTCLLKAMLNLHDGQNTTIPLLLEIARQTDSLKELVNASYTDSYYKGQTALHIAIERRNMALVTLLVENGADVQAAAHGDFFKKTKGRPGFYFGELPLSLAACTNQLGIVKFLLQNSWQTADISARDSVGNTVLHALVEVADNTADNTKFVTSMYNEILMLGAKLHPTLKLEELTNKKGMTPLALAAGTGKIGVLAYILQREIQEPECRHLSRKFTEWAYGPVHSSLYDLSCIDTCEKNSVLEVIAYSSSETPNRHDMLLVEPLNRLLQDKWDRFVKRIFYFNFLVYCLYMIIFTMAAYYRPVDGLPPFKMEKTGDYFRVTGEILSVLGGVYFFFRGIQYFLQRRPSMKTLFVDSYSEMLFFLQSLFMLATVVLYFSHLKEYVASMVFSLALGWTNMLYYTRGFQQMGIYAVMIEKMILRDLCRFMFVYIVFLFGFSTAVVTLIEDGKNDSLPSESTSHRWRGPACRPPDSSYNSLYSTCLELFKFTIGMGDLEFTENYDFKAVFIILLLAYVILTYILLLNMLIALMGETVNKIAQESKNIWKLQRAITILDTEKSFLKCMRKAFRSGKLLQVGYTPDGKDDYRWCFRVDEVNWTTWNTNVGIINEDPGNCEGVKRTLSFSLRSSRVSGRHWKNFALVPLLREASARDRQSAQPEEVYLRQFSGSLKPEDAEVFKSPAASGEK
reported_property: IC50 (µM)

Guide cases for IC50, answers given:
NS(=O)(=O)c1ccccc1-c1ccc2[nH]c(/C=C/c3ccccc3C(F)(F)F)nc2c1: 0.065
CC(C)(O)c1ccccc1-c1ccc2[nH]c(/C=C/c3ccc(S(=O)(=O)C(F)(F)F)cc3)nc2c1: 0.02
NC(=O)c1ccccc1-c1ccc2[nH]c(/C=C/c3ccc(SC(F)(F)F)cc3)nc2c1: 0.27

[a] CNS(=O)(=O)c1ccccc1-c1ccc2[nH]c(/C=C/c3cc(F)c(F)cc3F)nc2c1
[b] NS(=O)(=O)c1ccccc1-c1ccc2[nH]c(/C=C/c3cccc(OC(F)(F)F)c3)nc2c1
[c] NS(=O)(=O)c1ccccc1-c1ccc2[nH]c(C#Cc3cccc(C(F)(F)F)c3)nc2c1
[d] CC(=O)c1ccccc1-c1cc2nc(/C=C/c3ccc(C(F)(F)F)cc3)[nH]c2cc1F
[e] CC(C)(C)c1ccc(/C=C/c2nc3cc(-c4ccccc4C(N)=O)ccc3[nH]2)cc1
**Query** // ranking: key=IC50, reverse=True Returns: the labels arranged in the requested order.
**Result** d, e, a, c, b
(d: 0.2 µM, e: 0.071 µM, a: 0.033 µM, c: 0.016 µM, b: 0.008 µM)

[A] NS(=O)(=O)c1ccccc1-c1ccc2[nH]c(CCc3cc(F)cc(C(F)(F)F)c3)nc2c1
[B] CNS(=O)(=O)c1ccccc1-c1ccc2[nH]c(/C=C/c3ccc(C(C)=O)cc3)nc2c1
**Query** Hi there! Just curious which has the higher IC50 between A and B . Let me know the label of the one you choose.
**Result** B

[A] NS(=O)(=O)c1ccccc1-c1ccc2[nH]c([C@@H]3C[C@H]3c3ccc(C(F)(F)F)cc3)nc2c1
[B] CC(=O)c1ccccc1-c1ccc2[nH]c(/C=C/c3ccc(C(C)(C)C)cc3)nc2c1
**Query** Kindly identify the item with the lower IC50 figure among these two: A and B Let me know the label of the one you choose.
**Result** B
(B: 0.027 µM, A: 0.19 µM)

[a] NS(=O)(=O)c1ccccc1-c1ccc2[nH]c(/C=C/c3cccc(Br)c3)nc2c1
[b] CS(=O)(=O)Nc1ccccc1-c1ccc2[nH]c(/C=C/c3cc(F)cc(C(F)(F)F)c3)nc2c1
**Query** Kindly identify the item with the lower IC50 figure among these two: a and b Let me know the label of the one you choose.
**Result** a

* * *

Consider the following Ki values measured on hVR1 (Homo sapiens).
reported_property: Ki (nM)

Guide cases for Ki, answers given:
CC(=O)Nc1ccccc1-c1cc2nc(/C=C/c3ccc(C(F)(F)F)cc3)[nH]c2cc1C(F)(F)F: 120
CNS(=O)(=O)c1ccccc1-c1ccc2[nH]c(/C=C/c3ccc(Br)cc3)nc2c1: 19
Oc1ccccc1-c1ccc2[nH]c(/C=C/c3ccc(C(F)(F)F)cc3)nc2c1: 380
CC(=O)c1ccccc1-c1ccc2[nH]c(/C=C/c3ccc(C(C)(C)C)cc3)nc2c1: 9.7
CNS(=O)(=O)c1ccccc1-c1ccc2[nH]c(/C=C/c3ccc(C(F)(F)F)c(F)c3)nc2c1: 6

[A] CNS(=O)(=O)c1ccccc1-c1ccc2[nH]c(/C=C/c3ccc(C(F)(F)F)cc3)nc2c1
[B] NS(=O)(=O)c1ccccc1-c1ccc2[nH]c(/C=C/c3ccc(S(=O)(=O)C(F)(F)F)cc3)nc2c1
[C] CC(C)c1ccc(/C=C/c2nc3cc(-c4ccccc4NS(C)(=O)=O)ccc3[nH]2)cc1
[D] NS(=O)(=O)c1ccccc1-c1ccc2[nH]c(/C=C/c3ccc(F)cc3)nc2c1
[E] CC(C)(C)c1ccc(/C=C/c2nc3cc(-c4ccccc4NS(C)(=O)=O)ccc3[nH]2)cc1
**Query** // ranking: key=Ki, reverse=True Returns: the labels arranged in the requested order.
**Result** D, B, A, C, E

* * *

target: hVR1 (Homo sapiens); construct: expressed in transfected cells; host or cells: HEK293; test: Human VR1 (hVR1) Functional Assay (FLIPR intracellular calcium, capsaicin challenge); format: cell-based; settings: test concentration 1 μM; capsaicin 0.030 μM; HEK293 cells expressing hVR1
reported_property: inhibition at 1 µM (%)

Guide cases for inhibition at 1 µM, answers given:
CC(C)(O)c1ccccc1-c1ccc2[nH]c(C#Cc3ccccc3)nc2c1: 96
CC(C)(C)c1ccc(/C=C/c2nc3cc(-c4ccccc4NS(C)(=O)=O)c(C(F)(F)F)cc3[nH]2)cc1: 14

[P] CS(=O)(=O)Nc1ccccc1-c1ccc2[nH]c(/C=C/c3ccc(C(F)(F)F)c(F)c3)nc2c1
[Q] O=S(=O)(CC(F)(F)F)Nc1ccccc1-c1ccc2[nH]c(/C=C/c3ccc(C(F)(F)F)cc3)nc2c1
**Query** Hi there! Just curious which has the higher inhibition at 1 µM between P and Q . Let me know the label of the one you choose.
**Result** P
(P: 100%, Q: 0%)

* * *

target: hVR1 (Homo sapiens); construct: expressed in transfected cells; host or cells: HEK293; assay: Human VR1 (hVR1) Functional Assay (FLIPR intracellular calcium, capsaicin challenge); assay type: cell-based; conditions: test concentration 1 μM; capsaicin 0.030 μM; HEK293 cells expressing hVR1
reported_property: inhibition at 1 µM (%)

Guide cases for inhibition at 1 µM, answers given:
NS(=O)(=O)c1ccccc1-c1ccc2[nH]c(CCc3ccc(OC(F)(F)F)cc3)nc2c1 [Cpd 129]: 96
CNS(=O)(=O)c1ccccc1-c1ccc2[nH]c(/C=C/c3ccc(F)c(F)c3)nc2c1 [Cpd 329]: 98
Cc1ccc(/C=C/c2nc3cc(-c4ccccc4S(N)(=O)=O)ccc3[nH]2)cc1 [Cpd 430]: 100
NS(=O)(=O)c1ccccc1-c1ccc2[nH]c(CCc3ccc(S(=O)(=O)C(F)(F)F)cc3)nc2c1 [Cpd 131]: 96
CNS(=O)(=O)c1ccccc1-c1ccc2[nH]c(/C=C/c3cccc(Br)c3)nc2c1 [Cpd 338]: 96
NS(=O)(=O)c1ccccc1-c1ccc2[nH]c(CCc3ccc(F)c(C(F)(F)F)c3)nc2c1 [Cpd 383]: 96

[A] NS(=O)(=O)c1ccccc1-c1ccc2[nH]c(CCc3ccc(Cl)cc3)nc2c1 [Cpd 139]
[B] Oc1ccccc1-c1ccc2[nH]c(/C=C/c3ccc(SC(F)(F)F)cc3)nc2c1 [Cpd 36]
**Query** Kindly identify the item with the lower inhibition at 1 µM figure among these two: A and B Let me know the label of the one you choose.
**Result** B

* * *

biological target: hVR1 (Homo sapiens); construct: expressed in transfected cells; host or cells: HEK293; assay: Human VR1 (hVR1) Functional Assay (FLIPR intracellular calcium, capsaicin challenge); format: cell-based; details: test concentration 1 μM; capsaicin 0.030 μM; HEK293 cells expressing hVR1
reported_property: inhibition at 1 µM (%)

Guide cases for inhibition at 1 µM, answers given:
NS(=O)(=O)c1ccccc1-c1ccc2[nH]c(CCc3ccc(F)cc3C(F)(F)F)nc2c1: 94
NC(=O)c1ccccc1-c1ccc2[nH]c(C3CC3c3ccc(C(F)(F)F)cc3)nc2c1 (centres unmarked): 100
NC(=O)c1ccccc1-c1cc2nc(/C=C/c3ccc(C(F)(F)F)cc3)[nH]c2cc1F: 97
CC(=O)c1ccccc1-c1ccc2[nH]c(/C=C/c3ccc(F)c(F)c3)nc2c1: 100
CNS(=O)(=O)c1ccccc1-c1ccc2[nH]c(/C=C/c3ccc(F)cc3C(F)(F)F)nc2c1: 85
CC(C)(O)c1ccccc1-c1ccc2[nH]c(C3CC3c3ccc(C(F)(F)F)cc3)nc2c1 (centres unmarked): 100

[A] CNS(=O)(=O)c1ccccc1-c1ccc2[nH]c(/C=C/c3ccc(C(C)=O)cc3)nc2c1
[B] O=S(=O)(c1ccc(/C=C/c2nc3cc(-c4ccccc4C(F)(F)F)ccc3[nH]2)cc1)C(F)(F)F
**Query** Kindly identify the item with the lower inhibition at 1 µM figure among these two: A and B Let me know the label of the one you choose.
**Result** B
